B1: library; numbered along this chain (parent)
chain: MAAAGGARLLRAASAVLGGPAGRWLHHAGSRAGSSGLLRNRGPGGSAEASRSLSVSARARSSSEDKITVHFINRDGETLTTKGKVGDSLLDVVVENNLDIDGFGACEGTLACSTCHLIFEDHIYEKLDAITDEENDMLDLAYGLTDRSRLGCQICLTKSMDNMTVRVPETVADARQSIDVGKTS

variants of: B1; assay: scaled log2 fold change in cell abundance, elesclomol vs control (0 = silent mean, 1 = nonsense mean) (scaled log2 ratio); higher = higher viability under elesclomol (loss of FDX1 cuproptosis function); conditions: with ABC1 FDX1 KO; elesclomol 5 nM; glucose 10 mM; 14 days;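 also: variant abundance is its share of total variant reads in each endpoint sample, from next-generation sequencing of the integrated ORF PCR-amplified out of genomic DNA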
# if value of scaled log2 fold change reaches 0.2, tag true (1); if it stays below, tag false (0)

Previously resolved entries follow.
{"mut": "A174I", "qualitativeLabel": "false (0)"}
{"mut": "G29V", "qualitativeLabel": "false (0)"}
{"mut": "S46D", "qualitativeLabel": "true (1)"}
{"mut": "K84Q", "qualitativeLabel": "false (0)"}
{"mut": "C106Q", "qualitativeLabel": "true (1)"}

Query :: Can T81S be said to have scaled log2 fold change at or above 0.2?
Result :: false (0)

Query :: Decide: is the reported value of scaled log2 fold change for E125H equal to or greater than 0.2?
Result :: false (0)

Query :: Does the reported scaled log2 fold change for D121N fall at or above the 0.2 mark?
Result :: false (0)
